Measured Target: Fyn SH2 triple mutant superbinder (T4V/S6A/K8L), His-tag protein (human)
Test Summary: ELISA
pEC50: −log10 of the molar value. Square brackets hold non-standard residues; d marks the D form. Ends that are not written are not given here. * marks the point of attachment. Biotin = O=C1N[C@H]2[C@H](CS[C@H]2CCCCC(=O)*)N1; pY = N[C@@H](Cc1ccc(OP(=O)(O)O)cc1)C(=O)O; Ahx = NCCCCCC(=O)O

>  <Binder>
{Biotin-Ahx-Ahx}-EPQ[pY]EEIPIYL [biotin-ahx-ahx-EPQpYEEIPIYL]

>  <pEC50>
7.68

$$$$
